Recorded values, source patent US20250042861A1.

# Measured on: human CB1 receptor (Homo sapiens)
# Construct: expressed in transfected cells; host or cells: HEK293
# Test summary: bioSensAll GAPL-Gi2 BRET biosensor assay in transfected HEK293 cells, inhibition of CP-55,940 response
# Format: cell-based
# Run parameters: HEK293 cells transfected with hCB1 and GAPL-Gi2 biosensor, test compound then EC75 of CP-55,940 (0.1 nM), overnight incubation, read-out: CB1 wt Gi2 EC50
# Description: Using polyethylenimine (PEI) transfection agent, HEK293 cells were transfected in suspension with the human CB1 or CB1 b receptor and one of the following bioSensAll® assays: GAPL-Gi2, or β-arrestin plasma membrane (PM) translocation biosensor (+GRK2). Cells were directly seeded in 96-well plates immediately following transfection. Cells were incubated with coelenterazine (luciferase substrate) and different test compounds prior to the measurement of BRET signals. […]
pEC50: −log10 of the molar value.
Experimental endpoint: pEC50

>>> measured_number("CC(=O)N/C(N)=N/C(=N/S(=O)(=O)N1CCCCC1)N1CCC(c2ccccc2)C(c2ccc(Cl)cc2)=N1 (single isomer, unassigned) [Compound 2 Isomer 1]")
6.52

A. CC(=O)NC(N)=NC(=NS(=O)(=O)c1ccc(Cl)cc1)N1CCC(c2ccccc2)C(c2ccc(Cl)cc2)=N1 (single isomer, unassigned) [Compound 1 Isomer 1]
B. CC(=O)NC(N)=NC(=NS(=O)(=O)c1cc(F)cc(F)c1)N1CCC(c2ccccc2)C(c2ccc(Cl)cc2)=N1 (single isomer, unassigned) [Compound 6 Isomer 1]
C. CC(=O)N/C(N)=N/C(=N/S(=O)(=O)N1CCCCC1)N1CCC(c2ccccc2)C(c2ccc(Cl)cc2)=N1 (single isomer, unassigned) [Compound 2 Isomer 2]
Problem: Arrange the 3 compounds by rising pEC50, starting with the smallest. Form entry: labels listed in requested order.
Result: A, B, C

###

# Measured on: human CB1 receptor (Homo sapiens, UniProt P21554)
# Construct: expressed in transfected cells; host or cells: HEK293
# Sequence (P21554 whole entry): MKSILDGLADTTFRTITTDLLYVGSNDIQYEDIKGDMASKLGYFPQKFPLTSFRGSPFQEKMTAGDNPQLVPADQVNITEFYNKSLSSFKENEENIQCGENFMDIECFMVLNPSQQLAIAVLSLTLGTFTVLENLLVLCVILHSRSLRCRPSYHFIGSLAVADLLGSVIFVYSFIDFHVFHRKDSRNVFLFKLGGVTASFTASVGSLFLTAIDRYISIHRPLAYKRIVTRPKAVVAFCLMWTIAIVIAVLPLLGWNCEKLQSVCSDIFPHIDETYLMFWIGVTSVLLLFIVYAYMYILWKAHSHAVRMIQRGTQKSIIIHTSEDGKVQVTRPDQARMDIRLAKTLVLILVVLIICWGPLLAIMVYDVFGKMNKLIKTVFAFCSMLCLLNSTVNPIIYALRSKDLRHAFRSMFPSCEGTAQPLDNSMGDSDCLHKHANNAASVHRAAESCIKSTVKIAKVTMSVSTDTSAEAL
# Test summary: bioSensAll GAPL-Gi2 BRET biosensor assay in transfected HEK293 cells, inhibition of CP-55,940 response
# Assay type: cell-based
# Run parameters: HEK293 cells transfected with hCB1 and GAPL-Gi2 biosensor, test compound then EC75 of CP-55,940 (0.1 nM), overnight incubation, read-out: CB1 wt Gi2 EC50
Experimental endpoint: EC50 (nM)

>>> measured_number("CC(=O)N/C(N)=N/C(=N/S(=O)(=O)N1CCC(C(F)(F)F)CC1)N1CCC(c2ccccc2)C(c2ccc(Cl)cc2)=N1 (single isomer, unassigned) [Compound 3 Isomer 2]")
0.64
>>> measured_number("CC(=O)N/C(N)=N/C(=N/S(=O)(=O)N1CCC(C(F)(F)F)CC1)N1CCC(c2ccccc2)C(c2ccc(Cl)cc2)=N1 (single isomer, unassigned) [Compound 3 Isomer 1]")
190

a. CC(=O)N/C(N)=N\C(=N\S(=O)(=O)c1ccc(C(F)(F)F)cc1)N1CCC(c2ccccc2)C(c2ccc(Cl)cc2)=N1 (single isomer, unassigned) [Compound 7 Isomer 1]
b. CC(=O)N/C(N)=N/C(=N/S(=O)(=O)N1CCC(F)(F)CC1)N1CCC(c2ccccc2)C(c2ccc(Cl)cc2)=N1 (single isomer, unassigned) [Compound 4 Isomer 2]
Problem: Two entries are listed, a and b . Which one carries the higher EC50? Pick one and reply with its label.
Result: a
(a: 200 nM, b: 0.67 nM)
